- measured-target: T1, LIN28A (mouse, UniProt Q8K3Y3 1-209)
- T1 sequence: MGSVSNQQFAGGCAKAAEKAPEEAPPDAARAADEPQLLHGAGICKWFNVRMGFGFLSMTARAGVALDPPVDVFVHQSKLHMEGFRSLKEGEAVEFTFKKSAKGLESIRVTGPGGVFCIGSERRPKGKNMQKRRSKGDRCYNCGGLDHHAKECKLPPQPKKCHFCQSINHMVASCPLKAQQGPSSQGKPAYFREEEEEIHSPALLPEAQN
- method: SPR

binder: GGGGUAGUGAUUUUACCCUGUUUAUGAGAU (structured_RNA) [preE-let-7f-1 UGAG]
Kd: 387 nM

Values compiled from paper PMC13247719.
